# assay procedure: Inhibition of Salmonella enterica serovar Typhimurium type 3 secretion system-mediated SipA protein secretion by Western blotting
# Set-up: species or system Salmonella enterica subsp. enterica serovar Typhimurium
assay endpoint: IC50 (µM)

Examples from the recorded data:
[
  {
    "compound": "COc1cc(/C=C2\\S/C(=N\\c3ccc(CN)cc3)N(c3ccccc3)C2=O)cc(OC)c1O",
    "unit name": "µM",
    "recorded measurement": 101
  },
  {
    "compound": "COc1cc(/C=C2\\S/C(=N\\c3ccccc3)N(CCCCCCN)C2=O)cc(OC)c1O",
    "unit name": "µM",
    "recorded measurement": 54
  },
  {
    "compound": "COc1cc(/C=C2\\S/C(=N\\c3ccccc3)N([C@@H](Cc3ccc(-c4ccccc4)cc3)C(=O)N[C@@H](CCCNC(=N)N)C(N)=O)C2=O)cc(OC)c1O",
    "unit name": "µM",
    "recorded measurement": 3
  },
  {
    "compound": "COc1cc(/C=C2\\S/C(=N\\c3ccccc3)N([C@@H](C)C(=O)N[C@@H](CCCN)C(N)=O)C2=O)cc(OC)c1O",
    "unit name": "µM",
    "recorded measurement": 16
  },
  {
    "compound": "COc1cc(/C=C2\\S/C(=N\\c3ccccc3)N(C(C(=O)N[C@@H](Cc3ccc(O)cc3)C(N)=O)C(C)C)C2=O)cc(OC)c1O (some centres not stated)",
    "unit name": "µM",
    "recorded measurement": 52
  }
]

A. COc1cc(/C=C2\S/C(=N\c3ccccc3)N([C@@H](C)C(=O)N[C@@H](Cc3ccc(O)cc3)C(N)=O)C2=O)cc(OC)c1O
B. COc1cc(/C=C2\S/C(=N\c3ccccc3)N([C@H](Cc3ccc(-c4ccccc4)cc3)C(=O)N[C@@H](CCCNC(=N)N)C(N)=O)C2=O)cc(OC)c1O
*Q* For the pair A and B , which member has the lower IC50 number? Identify your selection by its label.
*A* B
(B: 8 µM, A: 112 µM)
